The measured values listed here are drawn from patent US20250109203A1.

TEST SYSTEM: human γδ TCR (Vγ9Vδ2) on human Vδ2+ γδ T cells (human) (UniProt A0JD36)
ASSAY TEXT: flow cytometry on expanded human Vδ2+ γδ T cells, nonlinear fit
pKd: −log10 of the molar value.
RECORDED METRIC: pKd

Please review the entries below; each comes with its answer.
BINDER: hu1D7v26 VHH-hIgG1 Fc-NNT (monomeric) (VHH) VHH: EVQLLESGGGEVQPGGSLRLSCVASRGKISQYRMGWYRQAPGKGLEWVAHISNTGDAAEYVDSVKGRFTISRDSTKNAVYLQMSSLRAEDTAVYYCNSVEDILAWGQGTLVTVKP
ENDPOINT RESULT: 7.54

BINDER: hu1D7v158-1 VHH-hIgG1 Fc-NNT (monomeric) (VHH) VHH: EVQLLESGGGEVQPGGSLRLSCVASRGKISQYRMGWVRQAPGKQRELVAHISNTGDAAEYVAPVKGRFTISRDNAKNALYLQMNSLRAEDTAVYKCNTVEDILAWGQGTLVTVEP
ENDPOINT RESULT: 6.69

BINDER: hu1D7v94 VHH-hIgG1 Fc-NNT (monomeric) (VHH) VHH: EVQLLESGGGEVQPGGSLRLSCVASRGKISQYRMGWYRQAPGKERELVAHISNTGDAAEYVDSVKDRFTISRDSTKNALYLQMSSLRAEDTAVYKCSNVEDILAWGQGTLVTVRP
ENDPOINT RESULT: 6.12

BINDER: hu1D7v98 VHH-hIgG1 Fc-NNT (monomeric) (VHH) VHH: EVQLLESGGGEVQPGGSLRLSCVASRGKISQYRMGWYRQAPGKERELVAHISNTGDAAEYVLSVKDRFTISRDSTKNALYLQMSSLRAEDTAVYKCNSVEDILAWGQGTLVTVRP
ENDPOINT RESULT: 6.94

1. hu1D7v74 VHH-hIgG1 Fc-NNT (monomeric) (VHH) VHH: EVQLLESGGGEVQPGGSLRLSCVASRGKISQYRMGWYRQAPGKERELVAHISNTGDAAEYVASVKDRFTISRDSTKNALYLQMSSLRAEDTAVYKCNSVEDILAWGQGTLVTVRP
2. hu1D7v80 VHH-hIgG1 Fc-NNT (monomeric) (VHH) VHH: EVQLLESGGGEVQPGGSLRLSCVASRGKISQYRMGWYRQAPGKERELVAHISNTGDAAEYVDSVKDRFTISRDSTKNALYLQMSSLRAEDTAVYKCNVVEDILAWGQGTLVTVRP
3. hu1D7v39 VHH-hIgG1 Fc-NNT (monomeric) (VHH) VHH: EVQLLESGGGEVQPGGSLRLSCVASRGKISQYRMGWYRQAPGKELEWVAHISNTGDAAEYVDSVKGRFTISRDSTKNAVYLQMSSLRAEDTAVYKCNSVEDILAWGQGTLVTVRP
4. 1D7v139 VHH-hIgG1 Fc-NNT (monomeric) (VHH) VHH: EVQLLESGGGEVQPGGSLRLSCVASRGKISQYRMGWYRQAPGKERELVAHISNTGDAAEYVLSVKDRFTISRDSTKNALYLQMSSLRAEDTAVYKCNSVEDILAWGQGTLVTVRP
5. hu1D7v13 VHH-hIgG1 Fc-NNT (monomeric) (VHH) VHH: EVQLLESGGGEVQPGGSLRLSCVASRGKISQYRMGWYRQAPGKGLEWVAHISNSGDAAEYVDSVKGRFTISRDSTKNAVYLQMSSLRAEDTAVYKCNSVEDILAWGQGTLVTVKP
# sort list by recorded pKd, greatest to least Hello, could you send the labels back in the order asked? Thank you.
3, 5, 1, 4, 2

I. hu1D7v10 VHH-hIgG1 Fc-NNT (monomeric) (VHH) VHH: EVQLLESGGGEVQPGGSLRLSCVASRGKISQYRMGWYRQAPGKGLEWVSHISNTGDAAEYVDSVKGRFTISRDSTKNAVYLQMSSLRAEDTAVYKCNSVEDILAWGQGTLVTVKP
II. hu1D7v158-6 VHH-hIgG1 Fc-NNT (monomeric) (VHH) VHH: EVQLLESGGGEVQPGGSLRLSCVASRGKISQYRMGWYRQAPGKQRELVAHISNTGDAAEYVASVKGRFTISRDNAKNALYLQMNSLRAEDTAVYKCNTVEDILAWGQGTLVTVEP
Between I and II , which one has the lower reported pKd value? Please indicate the selected item by its label.
I

P. hu1D7v69 VHH-hIgG1 Fc-NNT (monomeric) (VHH) VHH: EVQLLESGGGEVQPGGSLRLSCVASRGKISQYRMGWYRQAPGKERELVAHISNTGDAAEYVDSVKDRFTISRDSTKNALYLQMSSLRAEDTAVYKCTSVEDILAWGQGTLVTVRP
Q. hu1D7v75 VHH-hIgG1 Fc-NNT (monomeric) (VHH) VHH: EVQLLESGGGEVQPGGSLRLSCVASRGKISQYRMGWYRQAPGKERELVAHISNTGDAAEYVGSVKDRFTISRDSTKNALYLQMSSLRAEDTAVYKCNSVEDILAWGQGTLVTVRP
Would you let me know which has the greater pKd value, P or Q ? Please indicate the selected item by its label.
Q
